- Tested on: P. falciparum
- experimentalProtocol: microbe, parasite or virus in culture
- Parameters: species or system P. falciparum asexual blood stages in human erythrocytes; Blood-stage parasite growth inhibition over one lytic cycle, YOYO-1 parasitemia by flow cytometry
- setupConditions: Plasmodium falciparum, Erythrocyte, 48 h, read-out: 48h
# log10 EC50 listing for each entry below
parameter: log10 EC50 (log10 of the value in µM)

>  <molecule>
O=C(O)c1cn(C2CC2)c2cc(N3CCNCC3)c(F)cc2c1=O [ciprofloxacin]

>  <parameter>
log10 EC50

>  <observed>
1.38

$$$$
>  <molecule>
CCCCC[C@H](CC(=O)NO)C(=O)N[C@H](C(=O)N1CCC[C@H]1CO)C(C)C [actinonin]

>  <parameter>
log10 EC50

>  <observed>
0.51

$$$$
>  <molecule>
CO[C@@H]1[C@@H](OC(N)=O)[C@@H](O)[C@H](Oc2ccc3c(O)c(NC(=O)c4ccc(O)c(CC=C(C)C)c4)c(=O)oc3c2C)OC1(C)C [novobiocin]

>  <parameter>
log10 EC50

>  <observed>
1.60

$$$$
>  <molecule>
CCn1cc(C(=O)O)c(=O)c2cc(F)c(N3CCNCC3)cc21 [norfloxacin]

>  <parameter>
log10 EC50

>  <observed>
1.60

$$$$
>  <molecule>
C[C@H]1COc2c(N3CCN(C)CC3)c(F)cc3c(=O)c(C(=O)O)cn1c23 [levofloxacin]

>  <parameter>
log10 EC50

>  <observed>
1.85

$$$$
>  <molecule>
CO[C@H]1/C=C/O[C@@]2(C)Oc3c(C)c(O)c4c(O)c(c(/C=N/N5CCN(C)CC5)c(O)c4c3C2=O)NC(=O)/C(C)=C\C=C\[C@H](C)[C@H](O)[C@@H](C)[C@@H](O)[C@@H](C)[C@H](OC(C)=O)[C@@H]1C [rifampin]

>  <parameter>
log10 EC50

>  <observed>
0.00

$$$$

* * *

- measuredOn: PfFtsH1 (Plasmodium falciparum, UniProt Q8I526)
- Construct: His6-SUMO-PfFtsH1_91-612-GST (AAA+ ATPase and peptidase domains, lacking transmembrane domain)
- Sequence (Q8I526 entry or part of it): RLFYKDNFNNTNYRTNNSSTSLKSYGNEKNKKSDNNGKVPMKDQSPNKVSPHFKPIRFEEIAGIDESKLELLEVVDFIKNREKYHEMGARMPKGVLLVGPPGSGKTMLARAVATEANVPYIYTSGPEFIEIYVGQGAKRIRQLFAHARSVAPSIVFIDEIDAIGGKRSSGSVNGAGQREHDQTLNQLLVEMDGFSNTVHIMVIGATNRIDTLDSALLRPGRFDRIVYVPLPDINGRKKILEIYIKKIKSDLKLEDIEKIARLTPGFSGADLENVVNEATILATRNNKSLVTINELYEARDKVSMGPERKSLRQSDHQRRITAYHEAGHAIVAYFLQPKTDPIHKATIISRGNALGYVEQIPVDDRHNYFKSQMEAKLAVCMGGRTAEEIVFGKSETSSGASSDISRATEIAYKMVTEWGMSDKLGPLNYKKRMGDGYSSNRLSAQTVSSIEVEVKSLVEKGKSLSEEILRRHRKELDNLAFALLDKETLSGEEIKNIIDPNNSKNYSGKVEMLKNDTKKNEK
- experimentalProtocol: ATP-dependent FITC-casein proteolysis by purified recombinant PfFtsH1, fluorescence
pIC50: −log10 of the molar value.

>  <molecule>
CCCCC[C@H](CC(N)=O)C(=O)N[C@H](C(=O)N1CCC[C@H]1CO)C(C)C [actinamide]

>  <measuredOn>
PfFtsH1 (Plasmodium falciparum, UniProt Q8I526)

>  <pIC50>
5.14

$$$$

* * *

- Tested on: P. falciparum
- experimentalProtocol: microbe, parasite or virus in culture
- Design: species or system P. falciparum asexual blood stages in human erythrocytes; Blood-stage parasite growth inhibition over one lytic cycle, YOYO-1 parasitemia by flow cytometry
- setupConditions: Plasmodium falciparum, Erythrocyte, 48 h, read-out: 48h
- Procedure: For P. falciparum EC50 calculations, growth assays were performed in 96 well plates containing serial dilution of drugs in triplicate. Media was supplemented with 200 uM IPP as indicated. […] Parasitized cells were stained with 50 nM YOYO-1 (Invitrogen) overnight at room temperature and the parasitemia was determined by flow cytometry (BD Accuri C6 Sampler). Data were analyzed by BD Accuri C6 Sampler software. […]
Each record here notes measured EC50.
parameter: EC50

>  <molecule>
Nc1ccn([C@@H]2O[C@H](CO)[C@@H](O)[C@H]2F)c(=O)n1

>  <parameter>
EC50

>  <observed>
> 200 µM

$$$$
>  <molecule>
CCn1cc(C(=O)O)c(=O)c2cc(F)c(N3CCNCC3)nc21

>  <parameter>
EC50

>  <observed>
> 50 µM

$$$$
>  <molecule>
CC(C)C(=O)OC[C@H]1O[C@@H](n2ccc(N)nc2=O)[C@](C)(F)[C@@H]1OC(=O)C(C)C

>  <parameter>
EC50

>  <observed>
> 200 µM

$$$$
